- systemTested: UniProtKB P29597
- testSummary: TYK2 degradation MSD assay in human PBMC cells
- Type: cell-based
- Parameters: endogenous in cells; host or cells: human PBMC
- conditionContext: 4 to 24 hours incubation, read-out: TYK2 MSD DC50 rating in human PBMC
Measured DC50, listed per entry for reference.

Worked set:
molecule | systemTested | DC50
CNc1cc(Nc2cccc(-c3ccc(CN4CCC(c5ccc(-c6ccc7c(c6)n(C)c(=O)n7C6CCC(=O)NC6=O)cc5)CC4)cn3)c2)nn2c(C(=O)NC3CC3F)cnc12 (stereo not drawn) [Example K413] | UniProtKB P29597 | > 100 nM
CNc1cc(Nc2ccccc2C(=O)NCCCCCCc2cccc3c2n(C)c(=O)n3C2CCC(=O)NC2=O)nn2c(C(=O)N[C@@H]3C[C@@H]3F)cnc12 (stereo partly drawn) [Example K257] | UniProtKB P29597 | 1 to 10 nM

API: the following record is the query input.
Query: Can you look up the measured DC50 of CNc1cc(Nc2cccc(CN3CCN(c4ccc(-c5ccc6c(c5)n(C)c(=O)n6C5CCC(=O)NC5=O)cc4)CC3)c2)nn2c(C(=O)N[C@@H]3C[C@@H]3F)cnc12 (stereo partly drawn) [Example K486] for me?
Result: > 100 nM

###

- systemTested: UniProtKB P29597
- testSummary: TYK2 degradation MSD assay in OCI-LY10 cells
- Assay type: cell-based
- Parameters: endogenous in cells; host or cells: EBV-B cells
- conditionContext: 4 to 24 hours incubation, read-out: TYK2 MSD DC50 rating in OCI-LY10
valueKind: DC50

Solved entries (count: 4):
molecule | DC50
CNC(=O)c1cnc(Nc2ccc(CN3CCN(CC#Cc4ccc5c(c4)n(C)c(=O)n5C4CCC(=O)NC4=O)CC3)cn2)cc1Nc1cccc(-c2ncc(F)cn2)c1OC (centres unmarked) [Example K701] | < 1 nM
CNc1cc(Nc2cccn(-c3ccc(C(=O)N4CCC45CN(c4ncc(C#Cc6ccc7c(c6)n(C)c(=O)n7C6CCC(=O)NC6=O)cn4)C5)cn3)c2=O)nn2c(C(=O)N[C@@H]3C[C@@H]3F)cnc12 (some centres unmarked) [Example K376] | > 100 nM
CNc1cc(Nc2cccc(-c3ccc(CN4CC5(CCN(c6ccc(C7CCC(=O)NC7=O)cc6)CC5)C4)cn3)c2)nn2c(C(=O)N[C@@H]3C[C@@H]3F)cnc12 (some centres unmarked) [Example K500] | > 100 nM
CNC(=O)c1cnc(Nc2ccc(CN(C)CCCOC3CC(c4cccc5c4n(C)c(=O)n5C4CCC(=O)NC4=O)C3)cn2)cc1Nc1cccc(-c2ncc(F)cn2)c1OC (centres unmarked) [Example K158] | > 100 nM

Query: Given CNC(=O)c1cnc2c(NC)cc(Nc3cccc(-c4ccc(CN5CCN(c6ccc(-c7ccc8c(c7)n(C)c(=O)n8C7CCC(=O)NC7=O)cc6)CC5)cn4)c3OC)nn12 (centres unmarked) [Example K527] , state its recorded DC50.
Result: 1 to 10 nM

###

Measured DC50, listed per entry.
- systemTested: TYK2 (Homo sapiens, UniProt P29597)
- Sequence (P29597 whole entry): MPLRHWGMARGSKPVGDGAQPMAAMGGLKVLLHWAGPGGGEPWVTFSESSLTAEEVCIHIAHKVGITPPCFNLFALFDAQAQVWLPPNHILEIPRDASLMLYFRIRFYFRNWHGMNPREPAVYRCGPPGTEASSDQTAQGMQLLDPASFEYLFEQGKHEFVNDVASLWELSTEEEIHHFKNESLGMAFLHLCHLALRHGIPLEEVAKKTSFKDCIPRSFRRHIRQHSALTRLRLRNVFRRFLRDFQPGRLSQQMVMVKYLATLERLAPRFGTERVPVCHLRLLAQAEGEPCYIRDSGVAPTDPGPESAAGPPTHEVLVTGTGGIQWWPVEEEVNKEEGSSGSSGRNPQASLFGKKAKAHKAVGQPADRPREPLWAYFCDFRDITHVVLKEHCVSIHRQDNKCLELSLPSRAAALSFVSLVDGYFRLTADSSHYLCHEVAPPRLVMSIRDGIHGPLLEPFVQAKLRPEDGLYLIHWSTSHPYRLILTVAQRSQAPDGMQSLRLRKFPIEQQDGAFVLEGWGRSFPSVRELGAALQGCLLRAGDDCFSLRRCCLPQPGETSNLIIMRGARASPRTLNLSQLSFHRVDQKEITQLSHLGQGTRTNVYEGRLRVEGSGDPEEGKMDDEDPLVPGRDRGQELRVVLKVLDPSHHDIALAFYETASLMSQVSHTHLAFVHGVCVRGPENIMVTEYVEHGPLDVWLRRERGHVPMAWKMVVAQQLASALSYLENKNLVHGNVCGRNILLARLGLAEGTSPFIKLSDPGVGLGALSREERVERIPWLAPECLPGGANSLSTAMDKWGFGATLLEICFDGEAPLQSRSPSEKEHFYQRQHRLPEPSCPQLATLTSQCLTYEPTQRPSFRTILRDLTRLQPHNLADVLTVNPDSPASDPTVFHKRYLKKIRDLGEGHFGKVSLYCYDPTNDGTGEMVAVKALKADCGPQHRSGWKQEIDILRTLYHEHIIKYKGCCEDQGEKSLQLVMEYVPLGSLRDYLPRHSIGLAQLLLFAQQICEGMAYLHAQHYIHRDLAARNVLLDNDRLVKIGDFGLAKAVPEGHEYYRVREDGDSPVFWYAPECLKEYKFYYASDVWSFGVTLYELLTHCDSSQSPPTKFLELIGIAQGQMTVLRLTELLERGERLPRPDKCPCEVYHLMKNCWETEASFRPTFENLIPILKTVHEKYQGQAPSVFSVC
- testSummary: TYK2 degradation MSD assay in EBV-B cells
- Format: cell-based
- Parameters: endogenous in cells; host or cells: EBV-B cells
- conditionContext: 4 to 24 hours incubation, read-out: TYK2 MSD DC50 rating in EBV-B

Example molecules with recorded DC50:
molecule | DC50
CNc1cc(Nc2cccn(-c3cc(C(=O)NCCOCCOCCOCCOCCc4cccc5c4n(C)c(=O)n5C4CCC(=O)NC4=O)ccn3)c2=O)nn2c(C(=O)N[C@@H]3C[C@@H]3F)cnc12 (some centres unmarked) | > 100 nM
CNC(=O)c1cnc(Nc2ccc(CN3CCC(N(C)c4cccc5c4n(C)c(=O)n5C4CCC(=O)NC4=O)C3)cn2)cc1Nc1cccc(-c2ncc(F)cn2)c1OC (centres unmarked) | < 1 nM
CNc1cc(Nc2cccn(-c3ccc(C(=O)N4CCC(CN5CCC56CN(c5ncc(C#Cc7ccc8c(c7)n(C)c(=O)n8C7CCC(=O)NC7=O)cn5)C6)CC4)cn3)c2=O)nn2c(C(=O)N[C@@H]3C[C@@H]3F)cnc12 (some centres unmarked) | 1 to 10 nM
CNc1cc(Nc2cccn(-c3ccc(C(=O)N4CCC(N5CCC(N6CCN(c7ccc8c(c7)n(C)c(=O)n8C7CCC(=O)NC7=O)CC6)CC5)CC4)cn3)c2=O)nn2c(C(=O)N[C@@H]3C[C@@H]3F)cnc12 (some centres unmarked) | < 1 nM
CNc1cc(Nc2ccccc2C(=O)NCCCCc2cccc3c2n(C)c(=O)n3C2CCC(=O)NC2=O)nn2c(C(=O)N[C@@H]3C[C@@H]3F)cnc12 (some centres unmarked) | > 100 nM

Query: Look at this molecule and give its reported DC50. CNC(=O)c1cnc(Nc2ccc(CN(C)C3CCN(Cc4cccc5c4n(C)c(=O)n5C4CCC(=O)NC4=O)CC3)cn2)cc1Nc1cccc(-c2ncc(F)cn2)c1OC (centres unmarked)
Result: < 1 nM

Query: For Cc1cc(C)cc(Nc2cc(NCCCCCCCCc3ccc4c(c3)n(C)c(=O)n4C3CCC(=O)NC3=O)c3ncc(C(=O)N[C@@H]4C[C@@H]4F)n3n2)c1 (some centres unmarked) then?
Result: > 100 nM

Query: Try this molecule next: CNc1cc(Nc2cccn(-c3cccc(C(=O)NCCOCCOCCc4ccc5c(c4)n(C)c(=O)n5C4CCC(=O)NC4=O)c3)c2=O)nn2c(C(=O)N[C@@H]3C[C@@H]3F)cnc12 (some centres unmarked)
Result: > 100 nM

Query: Now try Cn1c(=O)n(C2CCC(=O)NC2=O)c2cccc(CCCCCCCCNc3cc(Nc4cccn(-c5ccccn5)c4=O)nn4c(C(=O)N[C@@H]5C[C@@H]5F)cnc34)c21 (some centres unmarked) .
Result: > 100 nM

Query: Then CNc1cc(Nc2cccc(-c3ccc(CN4CCN(CC#Cc5cccc6c5n(C)c(=O)n6C5CCC(=O)NC5=O)CC4)cn3)c2)nn2c(C(=O)N[C@@H]3C[C@@H]3F)cnc12 (some centres unmarked) ?
Result: > 100 nM

###

- systemTested: TYK2 (Homo sapiens, UniProt P29597)
- testSummary: TYK2 degradation MSD assay in EBV-B cells
- Assay type: cell-based
- Parameters: endogenous in cells; host or cells: EBV-B cells
- conditionContext: 4 to 24 hours incubation, read-out: TYK2 MSD DC50 rating in EBV-B
- Procedure: Example 3. TYK2 Degradation MSD Assay in EBV-B, OCI-LY10, and Human PBMC Cells Degradation of TYK2 in cells was quantitatively measured using Meso Scale Discovery (MSD) technology. […] The assay plates were then incubated at room temperature for 1 hour, washed 3 times with 150 μl/well TBST buffer, and 150 μl/well MSD reading buffer (MSD, R92TC-2) were added. The plates were then analyzed by an MSD reader. […]
valueKind: DC50

// below: answered compounds
compound | DC50
CNc1cc(Nc2cccn(-c3ccc(C(=O)NC4CCC(CN(C)CC5CCN(Cc6ccc7c(c6)n(C)c(=O)n7C6CCC(=O)NC6=O)CC5)CC4)cn3)c2=O)nn2c(C(=O)N[C@@H]3C[C@@H]3F)cnc12 (stereo partly shown) [Example K447] | > 100 nM
CNc1cc(N2CCc3c(C4CCN(CC5CCN(C(=O)c6ccc(Cl)c(N7CCC(=O)NC7=O)c6)CC5)CC4)cccc32)nn2c(C(=O)N[C@@H]3C[C@@H]3F)cnc12 (racemic) [Example K535] | > 100 nM

Query: Which value of DC50 has been reported for CNc1cc(Nc2cccn(-c3ccc(C(=O)C4CCC([C@H]5CCN(c6ccc7c(c6)n(C)c(=O)n7C6CCC(=O)NC6=O)C5)CN4)cn3)c2=O)nn2c(C(=O)N[C@@H]3C[C@@H]3F)cnc12 (stereo partly shown) [Example K425] in the records?
Result: > 100 nM

Query: Would you kindly repeat that for CNC(=O)c1cnc(Nc2ccc(CN(C)CC3CCN(Cc4cccc5c4n(C)c(=O)n5C4CCC(=O)NC4=O)CC3)cn2)cc1Nc1cccc(-c2ncc(F)cn2)c1OC (stereo not shown) [Example K134] ?
Result: < 1 nM

Query: What about CNc1cc(C2CCN(C(=O)CCCCCCCc3ccc4c(c3)n(C)c(=O)n4C3CCC(=O)NC3=O)CC2)nn2c(C(=O)N[C@@H]3C[C@@H]3F)cnc12 (stereo partly shown) [Example K302] ?
Result: > 100 nM

Query: Repeat for the following compound: CNc1cc(Nc2cccc(CN3CCC(c4ncc(-c5ccc6c(c5)n(C)c(=O)n6C5CCC(=O)NC5=O)cn4)CC3)c2)nn2c(C(=O)NC3CC3)cnc12 (stereo not shown) [Example K585]
Result: > 100 nM

Query: CNc1cc(Nc2cccn(-c3cc(C(=O)NCCOCCOCCOCCOCCOCCOCCc4cccc5c4n(C)c(=O)n5C4CCC(=O)NC4=O)ccn3)c2=O)nn2c(C(=O)N[C@@H]3C[C@@H]3F)cnc12 (stereo partly shown) [Example K244] ?
Result: > 100 nM

Query: Please answer likewise for CNC(=O)c1cnc(Nc2ccc(C(=O)NCCCCc3cccc4c3n(C)c(=O)n4C3CCC(=O)NC3=O)cn2)cc1Nc1ccccc1 (stereo not shown) [Example K192]
Result: > 100 nM

Query: Repeat for the following compound: CNc1cc(Nc2cccc(-c3ccc(CN4CCN(CCCOc5ccc(C6CCC(=O)NC6=O)cc5)CC4)cn3)c2)nn2c(C(=O)N[C@@H]3C[C@@H]3F)cnc12 (stereo partly shown) [Example K504]
Result: < 1 nM

Query: Also CNc1cc(Nc2cccn(-c3ccc(C(=O)NCCOCCOCCOCCOCCc4cccc5c4n(C)c(=O)n5C4CCC(=O)NC4=O)cn3)c2=O)nn2c(C(=O)N[C@@H]3C[C@@H]3F)cnc12 (stereo partly shown) [Example K218] ?
Result: > 100 nM

Taken from patent US20250051338A1.
